Sourced from patent US8580556B2

For each record, write down the corresponding relative β-galactosidase activity, inducer Cs.
system: tetA promoter (PtetA)-lacZ reporter in E. coli KM3; assay type: cell-based; conditions: Table 6, reverse repressor hits; chlorsulfuron, same plate assay format as Table 4
// response body must contain only the number

Task item: What does the data say about its relative β-galactosidase activity, inducer Cs? Entry: L1-25: library L1 reverse repressor hit (SEQ ID NO: 1206-1213) (protein, rSuR L1-25) MGSRLDKSKVINSALELLNEVGIEGLTTRKLAQKLGVEQPTLYWHVKNKRALLDALAIEMLDRHATHFCPLEGESWQDFLRNTAKSMRCALLSHRDGAKVLLGTATTEKQYETLENLLAFLYQQGFSLENALYAWQAVWRFTLGCVLIDQETQVAKEERETPTTDSMPPLLRQAVELKDHQGAEPAFLFGLELIICGLEKQLKCETGS
Reply: 0.28

Task item: Follow-up entry: L1-18: library L1 reverse repressor hit (SEQ ID NO: 1206-1213) (protein, rSuR L1-18) MGSRLDKSKVINSALELLNEVGIEGLTTRKLAQKLGVEQPTLYWHVKNKRALLDALAIEMLDRHLTHFCPLEGESWQDFLRNNAKSMRCALLSHRDGAKVWLGTGFTEKQYETKENRLAFLCQQGFSLENALYAIRAVSRFTLGCVLQDQEPQVAKEERETPTTDSMPPLLRQAVELFDHQGAEPAFLFGLELIICGLEKQLKCESES
Reply: 1.22
